# Test system: AML cell line MV4-11
# Protocol notes: Anticancer activity: Alamar Blue 3-day proliferation assay
# Assay type: cell-based
# Measurement context: Homo sapiens, MV4-11 cells, 72 h incubation, read-out: MV4-11 EC50_μM
pEC50: −log10 of the molar value.
Measured quantity: pEC50

compound="CCNC(=O)CC1N=C(c2ccc(Cl)cc2)c2cc(F)ccc2-c2cn(C)c(=O)cc21 (racemic) [Compound 37]" experimental_result=7.55
compound="CCNC(=O)C[C@H]1O[C@H](c2ccc(Cl)cc2)c2cc(OC)ccc2-c2cn(C)c(=O)cc21 [Compound 8F]" experimental_result=7.62

a = CCNC(=O)CC1N=C(C2CCCCC2)c2cc(OC)ccc2-c2cn(C)c(=O)cc21 (racemic) [Compound 26]
b = CCNC(=O)CC1OC(c2ccc(C)cn2)c2cc(OC)ccc2-c2cn(C)c(=O)cc21 (racemic) [Compound 11]
Q) Record comparison, field pEC50: mark the lower of a and b . Please identify the chosen entry by its label.
A) b
(b: 6.76, a: 8.10)

* * *

# System: AML cell line MV4-11
# Protocol notes: Anticancer activity: Alamar Blue 3-day proliferation assay
# Type: cell-based
# Measurement context: Homo sapiens, MV4-11 cells, 72 h incubation, read-out: MV4-11 EC50_μM
Measured quantity: EC50 (nM)

molecule="CCNC(=O)CC1N=C(c2ccccn2)c2cc(OC)ccc2-c2cn(C)c(=O)cc21 (racemic)" test_system="AML cell line MV4-11" experimental_result=112

A = COc1ccc2c(c1)C(c1ccc(Cl)cc1)=NC(CC(N)=O)c1cc(=O)n(C)cc1-2 (racemic)
B = CCNC(=O)CC1N=C(c2ccc(Cl)cc2)c2cc(OC)ccc2-c2cn(C)c(=O)cc21 (racemic)
Q) Which record would sort first by descending EC50, A or B ? Please identify the chosen entry by its label.
A) A
(A: 326 nM, B: 3 nM)

* * *

# Tested on: AML cell line MV4-11
# Protocol notes: Anticancer activity: Alamar Blue 3-day proliferation assay
# Type: cell-based
# Measurement context: Homo sapiens, MV4-11 cells, 72 h incubation, read-out: MV4-11 EC50_μM
# Method: Anticancer Activity: Alamar Blue Assay The impact of the compounds on cancer cell proliferation was determined using the AML cell line MV4-11 (ATCC) in a 3-day proliferation assay. MV4-11 cells were maintained in RPMI supplemented with 10% FBS at 37° C., 5% CO2. […] The fluorescent readings from the Alamar Blue assay were normalized to the DMSO treated cells and analyzed using the GraphPad Prism software with sigmoidal curve fitting to obtain EC50.
Measured quantity: EC50 (nM)

compound="CCNC(=O)CC1N=C(CC2CC2)c2cc(OC)ccc2-c2cn(C)c(=O)cc21 (racemic)" measured_quantity=EC50 experimental_result=118

a = CCNC(=O)CC1N=C(C(F)(F)F)c2cc(OC)ccc2-c2cn(C)c(=O)cc21 (racemic)
b = CCOC(=O)CC1OC(C2CCCCC2)c2cc(OC)ccc2-c2cn(C)c(=O)cc21 (racemic)
c = CCOC(=O)CC1N=C(c2ccc(Cl)cc2)c2cc(OC)ccc2-c2cn(C)c(=O)cc21 (racemic)
Q) Write the entries in order, lowest recorded EC50 first. Response format: the labels, sorted as the prompt asks.
A) b, c, a

* * *

# Test system: BRD4-BD1 (Homo sapiens (Human), UniProt O60885)
# Protocol notes: BRD4 AlphaLISA (Perkin Elmer)
# Measurement context: 5 nM BRD4-BD1, 12 nM biotinylated substrate, read-out: BRD4_BD1 IC50_μM
pIC50: −log10 of the molar value.
Measured quantity: pIC50

Check out these entries, answers already filled in.
compound="CCNC(=O)CC1OC(c2ccc(C)cn2)c2cc(OC)ccc2-c2cn(C)c(=O)cc21 (racemic)" measured_quantity=pIC50 experimental_result=7.21
compound="CCNC(=O)CC1N=C(c2ccccn2)c2cc(OC)ccc2-c2cn(C)c(=O)cc21 (racemic)" measured_quantity=pIC50 experimental_result=8.36
compound="CCOC(=O)CC1N=C(C)c2cc(OC)ccc2-c2cn(C)c(=O)cc21 (racemic)" measured_quantity=pIC50 experimental_result=6.75
compound="CCNC(=O)CC1N=C(C(F)(F)F)c2cc(OC)ccc2-c2cn(C)c(=O)cc21 (racemic)" measured_quantity=pIC50 experimental_result=7.31
compound="CCNC(=O)CC1N=C(c2ccc(Cl)cc2)c2cc(C(F)(F)F)ccc2-c2cn(C)c(=O)cc21 (racemic)" measured_quantity=pIC50 experimental_result=7.11

1 = COc1ccc2c(c1)C(c1ccc(Cl)cc1)=NC(CC(N)=O)c1cc(=O)n(C)cc1-2 (racemic)
2 = CCNC(=O)CC1N=C(CC2CC2)c2cc(OC)ccc2-c2cn(C)c(=O)cc21 (racemic)
Q) Record comparison, field pIC50: mark the lower of 1 and 2 . Please identify the chosen entry by its label.
A) 1

a = CCNC(=O)CC1N=C(c2ccc(Cl)cc2)c2cc(F)ccc2-c2cn(C)c(=O)cc21 (racemic)
b = CCOC(=O)CC1OC(C2CCCCC2)c2cc(OC)ccc2-c2cn(C)c(=O)cc21 (racemic)
c = CCOC(=O)CC1OC(c2ccc(Cl)cc2)c2cc(OC)ccc2-c2cn(C)c(=O)cc21 (racemic)
Q) Write the entries in order, lowest recorded pIC50 first. Response format: the labels, sorted as the prompt asks.
A) c, b, a
(c: 7.62, b: 8.00, a: 8.40)

Attribution: patent US10689390B2
